Reported values: pIC50 for UniProt P62575, one per item.
Sequence (P62575 54-1035): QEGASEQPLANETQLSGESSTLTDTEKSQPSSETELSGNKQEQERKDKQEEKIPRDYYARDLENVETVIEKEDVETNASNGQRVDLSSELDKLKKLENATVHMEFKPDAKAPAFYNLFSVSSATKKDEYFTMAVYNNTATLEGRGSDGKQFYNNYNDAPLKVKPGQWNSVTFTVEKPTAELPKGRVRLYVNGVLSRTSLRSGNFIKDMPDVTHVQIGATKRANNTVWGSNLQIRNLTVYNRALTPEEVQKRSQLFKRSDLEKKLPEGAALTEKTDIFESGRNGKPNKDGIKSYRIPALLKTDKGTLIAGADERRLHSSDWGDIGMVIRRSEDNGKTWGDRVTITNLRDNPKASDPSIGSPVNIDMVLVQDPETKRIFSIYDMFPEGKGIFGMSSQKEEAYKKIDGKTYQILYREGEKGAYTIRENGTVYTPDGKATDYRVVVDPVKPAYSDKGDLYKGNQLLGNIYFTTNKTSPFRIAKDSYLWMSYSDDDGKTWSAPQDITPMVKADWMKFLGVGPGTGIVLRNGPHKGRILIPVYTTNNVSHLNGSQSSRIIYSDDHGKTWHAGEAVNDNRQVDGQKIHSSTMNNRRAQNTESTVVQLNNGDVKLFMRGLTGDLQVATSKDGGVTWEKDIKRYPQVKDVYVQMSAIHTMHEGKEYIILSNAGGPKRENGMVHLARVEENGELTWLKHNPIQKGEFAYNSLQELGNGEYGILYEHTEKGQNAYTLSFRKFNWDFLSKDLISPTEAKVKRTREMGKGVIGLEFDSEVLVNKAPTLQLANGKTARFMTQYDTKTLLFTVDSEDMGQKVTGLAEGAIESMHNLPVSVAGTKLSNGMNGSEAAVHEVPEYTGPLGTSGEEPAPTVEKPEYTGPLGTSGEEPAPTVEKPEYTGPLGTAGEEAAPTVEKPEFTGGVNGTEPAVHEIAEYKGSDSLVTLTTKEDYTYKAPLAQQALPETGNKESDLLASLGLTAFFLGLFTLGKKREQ
Entry type: numeric. Quantity: pIC50, the -log10 of concentration in molar units.

Task: Given the entry "CC(=O)N[C@H]1[C@H]([C@H](O)[C@H](O)CNC(=O)C2CC2)OC(C(=O)O)=C[C@@H]1O" , report its measured pIC50.
Result: 5.17

Task: Also, "CCCCC(=O)NC[C@@H](O)[C@@H](O)[C@@H]1OC(C(=O)O)=C[C@H](O)[C@H]1NC(C)=O" please.
Result: 4.98

Task: Also, CC(=O)N[C@@H]1C(O)C=C(C(=O)O)OC1C[C@H](O)CO (stereo partly shown) please.
Result: 4.97

Task: Also, CC(=O)NC[C@@H](O)[C@@H](O)C1OC(C(=O)O)=CC(O)[C@H]1NC(C)=O (stereo partly shown) please.
Result: 4.96

The origin of these recorded values is paper PMC5920526.
